- Tgt: T1, ECF35_3582
- T1 chain: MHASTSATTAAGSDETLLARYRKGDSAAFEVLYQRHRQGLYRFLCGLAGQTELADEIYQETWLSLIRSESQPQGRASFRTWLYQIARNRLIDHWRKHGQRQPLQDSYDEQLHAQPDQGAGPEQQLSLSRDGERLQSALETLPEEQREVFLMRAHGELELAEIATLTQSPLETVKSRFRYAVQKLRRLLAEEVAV
Quick reference: fold repression of the listed items.
Answer with the value's number alone.

Previously resolved entries follow.
{"Binder": "AS27_1331 (protein) MSAADKDPDKHSADADPPLTVELLADLQAGLLDDATAARIRSRVRSDPQAQQILRALNRVRRDVAAMGADPAWGPAARPAVVDSISAALRSARPNSSPGAAHAARPHVHPVRMIAGAAGLCAVATAIGVGAVVDAPPPAPSAPTTAQHITVSKPAPVIPLSRPQVLDLLHHTPDYGPPGGPLGDPSRRTSCLSGLGYPASTPVLGAQPIDIDARPAVLLVIPADTPDKLAVFAVAPHCSAADTGLLASTVVPRA", "fold repression": 5.79}
{"Binder": "AS01_3473 (protein) MSNYDNAELLALWLEGKLTPKQRDEFEQRCIQDSQFAEQVDAAAMVKIGADDYSSSEVPQWNKAATFEPQQANNSGSWLSGVSLVTSALAIVLVLTGTQVTTSEGELRIRFGSGQSEQALVKLVDSKLDAFKQNQQDAFTLYAQTLQQQQSESASQLTNYLLSSSRKERREDFAELIKFVNQQRSDDQLFYARQLNQLQQDVYHDATGVALESIQQ", "fold repression": 1.49}

Can you share its fold repression? I mean this binder: AS33_375 (protein) MMALSKKMLEQEPSEIELLLPWHAAGTLNARDARRVEDALARDPELAKQYAAIRGEYEETIHLNESLGAPSARAMQKLFGAIDAEPARETGSLPLSARIATFFASLSPRTLAWSASLGAVALVLQAGIIGAVLMKTQPTTFQTASLSTSAPITRELGAAVAPARALVRFTPEARVADITALLDSYQASIIGDAKGGMFRLQFDKAMSQDELASLLGRMQREKFVNLAVAAP 5.86

One more binder: AS14_1324 (protein) MSGSRPEPEGHLAEQHLGDRLSALVDGELGHDARERVLAHVATCPKCKAEVDAQRRLKNVFAEAAPPAPSESFLARLQGLPGGGDSDGGGSPFSGLPGGFGASAASGVFGPRRDERFEFDYVPAGSHTPVLPSATSGRGFRIHEVGRHESDRSASRGLRFAFAAAGAVSLAAIALGGVTLGTPDTTTEARGSGSGSNVTPLRTPGSAAATGSESQRRRTAGPLLGQGQRALGDLPVASTTASAPLLPGMPAPAGGDARQQAVRALTTPVTAGAAAMSPLIRPLEAVPPLSLSSWSAAPEVRPPGLLAAPDPAPSPYPAASPAASSSPLR 4.28

One more binder: AS35_3582 (protein) MNPQKHSASVAEEQMLAHFRAHAPQQPAPALDQAILAAARRQAAHVEPARSWWRRWLEASRRPRWQAAFASLLGVALVLGLVSHNVLDDAERQARPEVAFSDVPLRDGVAGAAAAKRAMRAPAAPAPLSGEMSEPPALLASYASSGEAPQLMAEAAPPAPAALADRPPAQAAQQAKVQAALAGDFVAQARGKAVAVKPEVLDEALGAVLALREQGKTEQAATQLAELQKRFPGENLVERLERLATIAASARKRP 311

One more binder: AS15_436 (protein) MAQSTEPKASPQEATAKGGDNTKGKSRKELQQQIDENLRRVYEEALVQEVPDRFAMLLDQLRQKGTGK 1.1

One more binder: AS16_3622 (protein) MMKTDELISLLATAEGPVDRHALARRLGLALLAGLLGALLLTVALYGVRSDLAEVARTPLFWAKVALPTSLALLGLWLTQRLARPGVRGGALWGLLGVPLLLVWLGAAISLFGAPPEARADLIFGRTWRTCALNITLLSTPVFIAVFWALRGLAPTRLRQAGAAGGLLAGSTATLVYCLHCPEMGVPFWGLWYLLGMLVPTLLGAVLGPRLLRW 1.67

One more binder: AS15_524 (protein) MNFGVEDMIEHVPMEDKRKGAAALDEARLRQQAIGVKLRQMFDEVVNEPVPDEFLAILRKAERPAGGE 2.42

One more binder: AS27_4265 (protein) MTGHPDVAEIADLAEGLLPTTRTTEVRQHLESCELCADVYASLTEIQGLLGTLPAPAPMPDDVAARIDAALAAEPPLGIADGTRVSRETSTPADRPAGHARPSSTGPGRKDRRRGGRRRIAVLGAVAAAAAIGIGSVVVSSLTEDSSSGNTAREQQTAIADTFSEGRLKDRVTNLVADGSAENGSRTPRSFGMESENGGETAENHVFKQPTVPECIRKGIGRDDAVIATEPGVYKGREALLVVLPDATNDTQVTAYIVETACVDQPAVGKAKILLEHSYARS 1.97

One more binder: AS22_4450 (protein) MELDDMKHAWQTLEQRLDQQAAQTGQLLGVVHEETVRSSLRPLWVAQTAQLLCALALAIVSARSWIPHTDQPVAVIGGVLLQAWCMALAISAMVQLQLLTQFNVAGPLLRTQHALARLRRWRTRVAPWLGVAFWVLWIAVADALWRALTGQTLPTDWLVLNLLVGVAGGIGTWLGFRRLQRAQHPWLERIDRAHAGTGVIRAERMLEEIARFQRD 1.35

One more binder: AS33_423 (protein) MMAMSNTMPDPREPGDVEALLPWYAAGTLNARDARRVADALDRDPALARQYAVILEEYASTIELNESLGAPSSRAMQKLFAAIDAEPARAPGAGQGLGARFAGFFAGLSPKALAWSASVAGLALLLQAGLIGALLTWPHAAPVQTAAYQPQREVARAPASSPAPATVSPPAAAMADRAADAGKSTPPMVMAERSGGPVVRSLAPQSGPRVLVKFAPEARASEIAALLDQYNAVVVDSSRGGLFRLQFGTQSLSKQDQETLIGRLQKEPVVSVVLSAP 6.37
